This section presents compounds with their documented AUC values.
# test: Pharmacokinetics assay in rats after intragastric administration
# Type: in vivo
# conditionsUsed: both sexes, SD, rat, plasma, po, 5 mg/kg, read-out: Area under Curve AUC
Just the number in ng·h/mL, nothing appended.

Cc1cc(O[C@@H]2COC[C@H]2O)cc(C)c1-c1cccc(COc2ccc3c(c2)OC[C@H]3CC(=O)O)c1 ... 38200
Cc1cc(O[C@@H]2CCOC2)cc(C)c1-c1cccc(COc2ccc3c(c2)OC[C@H]3CC(=O)O)c1 ... 32900

Then this compound:
Looking for the measured AUC of Cc1cc(O[C@H]2CCOC2)cc(C)c1-c1cccc(COc2ccc3c(c2)OC[C@H]3CC(=O)O)c1 , can you help? 21600

###

# test: Pharmacokinetics assay in rats after intragastric administration
# Type: in vivo
# conditionsUsed: both sexes, SD, rat, plasma, po, 5 mg/kg, read-out: Plasma Conc. Cmax
readoutType: Cmax (ng/mL)
Just the number in ng/mL, nothing appended.

Guide cases for Cmax, answers given:
Cc1cc(O[C@@H]2CCOC2)cc(C)c1-c1cccc(COc2ccc3c(c2)OC[C@H]3CC(=O)O)c1 ... 2010
Cc1cc(O[C@@H]2COC[C@H]2O)cc(C)c1-c1cccc(COc2ccc3c(c2)OC[C@H]3CC(=O)O)c1 ... 2730

Then this molecule:
Looking for the measured Cmax of Cc1cc(O[C@H]2CCOC2)cc(C)c1-c1cccc(COc2ccc3c(c2)OC[C@H]3CC(=O)O)c1 , can you help? 1690

###

This section presents compounds with their documented MRT values.
# test: Pharmacokinetics assay in rats after intragastric administration
# Type: in vivo
# conditionsUsed: both sexes, SD, rat, plasma, po, 5 mg/kg, read-out: Mean Residence Time MRT
Form field: result (number plus unit)

Guide cases for MRT, answers given:
Cc1cc(O[C@@H]2COC[C@H]2O)cc(C)c1-c1cccc(COc2ccc3c(c2)OC[C@H]3CC(=O)O)c1 ... 13.3 h
Cc1cc(O[C@H]2CCOC2)cc(C)c1-c1cccc(COc2ccc3c(c2)OC[C@H]3CC(=O)O)c1 ... 14.5 h

Then this compound:
Looking for the measured MRT of Cc1cc(O[C@@H]2CCOC2)cc(C)c1-c1cccc(COc2ccc3c(c2)OC[C@H]3CC(=O)O)c1 , can you help? 18.9 h

###

# testedSystem: GPR40 (Homo sapiens, UniProt O14842)
# Sequence (O14842 whole entry): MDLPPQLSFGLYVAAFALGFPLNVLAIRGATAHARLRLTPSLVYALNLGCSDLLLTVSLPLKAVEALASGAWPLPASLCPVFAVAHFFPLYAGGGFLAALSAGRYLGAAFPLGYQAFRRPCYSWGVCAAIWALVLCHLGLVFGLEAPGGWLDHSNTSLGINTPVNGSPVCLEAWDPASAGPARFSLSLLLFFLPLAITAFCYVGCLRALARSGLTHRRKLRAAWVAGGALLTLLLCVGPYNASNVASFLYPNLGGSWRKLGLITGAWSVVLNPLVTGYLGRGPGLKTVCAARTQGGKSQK
# test: Agonist activity on CHO-K1/GPR40 cell (Fluo-4 calcium fluorescence)
# conditionsUsed: CHO-K1 cell line expressing GPR40, calcium ion fluorescence
readoutType: EC50 (nM)
Just the number in nM, nothing appended.

Guide cases for EC50, answers given:
Cc1cc(O[C@H]2CCN(S(C)(=O)=O)C2)cc(C)c1-c1cccc(COc2ccc3c(c2)OC[C@H]3CC(=O)O)c1 [Example 8] ... 88
Cc1ccc(-c2c(C)cc(O[C@H]3CCOC3)cc2C)cc1COc1ccc2c(c1)OC[C@H]2CC(=O)O [Example 27] ... 53
Cc1cc(O[C@H]2CCOC2)cc(C)c1-c1cccc(COc2ccc3c(c2)OC[C@@H]3CC(=O)O)c1 [Example 34] ... 113
Cc1cc(O[C@H]2CCOC2)cc(C)c1-c1cccc(COc2ccc3c(c2)OC[C@H]3CC(=O)O)c1 [Example 1] ... 31
Cc1cc(O[C@H]2CCOC2)cc(C)c1-c1cccc(COc2ccc3c(c2)OC[C@H]3CC(=O)O)c1C [Example 12] ... 113

// fetch GPR40 (Homo sapiens, UniProt O14842) EC50 for Cc1cc(O[C@@H]2CCOC2)cc(C)c1-c1ccc(F)c(COc2ccc3c(c2)OC[C@H]3CC(=O)O)c1 [Example 26] 52

// fetch GPR40 (Homo sapiens, UniProt O14842) EC50 for Cc1cc(OC2CNC2)cc(C)c1-c1cccc(COc2ccc3c(c2)OC[C@H]3CC(=O)O)c1 [Example 16] 15

###

# testedSystem: GPR40 (Homo sapiens, UniProt O14842)
# test: Agonist activity on CHO-K1/GPR40 cell (Fluo-4 calcium fluorescence)
# conditionsUsed: CHO-K1 cell line expressing GPR40, calcium ion fluorescence
readoutType: EC50 (nM)
Just the number in nM, nothing appended.

Guide cases for EC50, answers given:
COC(=O)N1CCC(Oc2cc(C)c(-c3cccc(COc4ccc5c(c4)OC[C@H]5CC(=O)O)c3)c(C)c2)CC1 ... 141
Cc1cc(OC2CN(C(=O)[C@H](C)O)C2)cc(C)c1-c1cccc(COc2ccc3c(c2)OC[C@H]3CC(=O)O)c1 ... 140
Cc1cc(O[C@@H]2CCC[C@H]2O)cc(C)c1-c1cccc(COc2ccc3c(c2)OC[C@H]3CC(=O)O)c1 (mixture of isomers) ... 157
Cc1cc(O[C@@H]2COC[C@H]2O)cc(C)c1-c1cccc(COc2ccc3c(c2)OC[C@H]3CC(=O)O)c1 (mixture of isomers) [Example 13] ... 16
Cc1cc(O[C@@H]2CCOC2)cc(C)c1-c1cccc(COc2ccc3c(c2)OC[C@H]3CC(=O)O)c1 ... 35
Cc1cc(O[C@H]2CCOC2)cc(C)c1-c1ccc(F)c(COc2ccc3c(c2)OC[C@H]3CC(=O)O)c1 ... 28
Cc1cc(O[C@H]2CCOC2)c(F)c(C)c1-c1cccc(COc2ccc3c(c2)OC[C@H]3CC(=O)O)c1 ... 55
Cc1cc(O[C@@H]2CCOC2)c(F)c(C)c1-c1cccc(COc2ccc3c(c2)OC[C@H]3CC(=O)O)c1 ... 82

Looking for the measured EC50 of Cc1cc(OC2CCN(C(=O)[C@H](C)O)CC2)cc(C)c1-c1cccc(COc2ccc3c(c2)OC[C@H]3CC(=O)O)c1 , can you help? 77

Looking for the measured EC50 of Cc1cc(O[C@@H]2COC[C@H]2O)cc(C)c1-c1cccc(COc2ccc3c(c2)OC[C@H]3CC(=O)O)c1 [Example 30] , can you help? 34

Looking for the measured EC50 of Cc1cc(OC2CCN(S(C)(=O)=O)CC2)cc(C)c1-c1cccc(COc2ccc3c(c2)OC[C@H]3CC(=O)O)c1 , can you help? 107

Looking for the measured EC50 of Cc1cc(OC2CCNCC2)cc(C)c1-c1cccc(COc2ccc3c(c2)OC[C@H]3CC(=O)O)c1 , can you help? 81

Looking for the measured EC50 of Cc1cc(O[C@@H]2CC[C@H](O)[C@@H]2O)cc(C)c1-c1cccc(COc2ccc3c(c2)OC[C@H]3CC(=O)O)c1 , can you help? 31

Looking for the measured EC50 of Cc1cc(OC2CCCC2)cc(C)c1-c1cccc(COc2ccc3c(c2)OC[C@H]3CC(=O)O)c1 , can you help? 134

###

# test: Pharmacokinetics assay in rats after intragastric administration
# Assay type: in vivo
# conditionsUsed: both sexes, SD, rat, plasma, po, 5 mg/kg, read-out: Half-Life t½ (converted)
This section presents compounds with their documented half-life values.
Just the number in h, nothing appended.

Guide cases for half-life, answers given:
Cc1cc(O[C@@H]2COC[C@H]2O)cc(C)c1-c1cccc(COc2ccc3c(c2)OC[C@H]3CC(=O)O)c1 [Example 30] ... 9.35
Cc1cc(O[C@H]2CCOC2)cc(C)c1-c1cccc(COc2ccc3c(c2)OC[C@H]3CC(=O)O)c1 [Example 1] ... 10.1

Looking for the measured half-life of Cc1cc(O[C@@H]2CCOC2)cc(C)c1-c1cccc(COc2ccc3c(c2)OC[C@H]3CC(=O)O)c1 [Example 2] , can you help? 13.4

###

This section presents compounds with their documented EC50 values.
# testedSystem: GPR40 (Homo sapiens, UniProt O14842)
# test: Agonist activity on CHO-K1/GPR40 cell (Fluo-4 calcium fluorescence)
# conditionsUsed: CHO-K1 cell line expressing GPR40, calcium ion fluorescence
Just the number in nM, nothing appended.

Cc1cc(O[C@@H]2CCOC2)cc(C)c1-c1cccc(COc2ccc3c(c2)OC[C@@H]3CC(=O)O)c1 ... 113
Cc1cc(O[C@H]2COC[C@@H]2O)cc(C)c1-c1cccc(COc2ccc3c(c2)OC[C@H]3CC(=O)O)c1 ... 41
Cc1cc(OC2CN(C(=O)CO)C2)cc(C)c1-c1cccc(COc2ccc3c(c2)OC[C@H]3CC(=O)O)c1 ... 131

// fetch GPR40 (Homo sapiens, UniProt O14842) EC50 for Cc1cc(O[C@@H]2CCN(S(C)(=O)=O)C2)cc(C)c1-c1cccc(COc2ccc3c(c2)OC[C@H]3CC(=O)O)c1 73
